Where these numbers come from: ChEMBL document CHEMBL1926631

Molecular target: Vascular endothelial growth factor receptor 2 (Homo sapiens)
Sequence (P35968 whole entry): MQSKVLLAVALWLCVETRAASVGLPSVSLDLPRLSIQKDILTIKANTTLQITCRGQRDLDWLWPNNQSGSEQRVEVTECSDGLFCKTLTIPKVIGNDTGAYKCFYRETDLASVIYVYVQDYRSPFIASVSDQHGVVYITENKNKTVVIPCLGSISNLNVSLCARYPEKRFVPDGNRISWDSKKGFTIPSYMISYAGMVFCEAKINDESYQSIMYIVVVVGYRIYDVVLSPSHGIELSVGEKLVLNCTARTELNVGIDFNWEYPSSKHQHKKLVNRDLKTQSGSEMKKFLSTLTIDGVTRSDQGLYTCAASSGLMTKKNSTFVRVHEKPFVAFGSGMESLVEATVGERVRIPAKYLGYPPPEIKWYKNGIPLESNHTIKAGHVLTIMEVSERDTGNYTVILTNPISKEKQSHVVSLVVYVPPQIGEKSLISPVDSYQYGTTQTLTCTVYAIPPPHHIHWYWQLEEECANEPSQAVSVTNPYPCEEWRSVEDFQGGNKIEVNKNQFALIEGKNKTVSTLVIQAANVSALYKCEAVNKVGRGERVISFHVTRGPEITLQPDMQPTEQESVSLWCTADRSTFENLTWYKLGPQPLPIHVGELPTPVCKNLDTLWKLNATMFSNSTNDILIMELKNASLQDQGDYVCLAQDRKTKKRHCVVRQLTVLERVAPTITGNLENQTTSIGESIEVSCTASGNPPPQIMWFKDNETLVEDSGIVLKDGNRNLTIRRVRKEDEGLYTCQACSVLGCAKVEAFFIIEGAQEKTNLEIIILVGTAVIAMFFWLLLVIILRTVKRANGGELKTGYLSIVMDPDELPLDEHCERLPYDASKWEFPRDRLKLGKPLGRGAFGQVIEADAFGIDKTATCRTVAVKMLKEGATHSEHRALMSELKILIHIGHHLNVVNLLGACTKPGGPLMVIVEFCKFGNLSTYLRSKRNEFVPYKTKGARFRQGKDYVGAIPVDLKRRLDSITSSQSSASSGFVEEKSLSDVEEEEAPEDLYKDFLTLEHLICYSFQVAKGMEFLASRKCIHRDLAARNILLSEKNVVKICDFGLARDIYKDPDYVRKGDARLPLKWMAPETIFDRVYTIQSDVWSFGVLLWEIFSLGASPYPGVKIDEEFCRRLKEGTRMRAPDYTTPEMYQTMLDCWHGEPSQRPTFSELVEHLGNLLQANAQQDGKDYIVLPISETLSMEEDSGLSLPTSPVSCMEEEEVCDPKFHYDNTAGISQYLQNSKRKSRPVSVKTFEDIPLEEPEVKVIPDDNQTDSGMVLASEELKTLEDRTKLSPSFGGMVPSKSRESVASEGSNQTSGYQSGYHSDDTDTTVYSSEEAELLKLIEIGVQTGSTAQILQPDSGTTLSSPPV
Assay: Inhibition of VEGFR2 tyrosine kinase activity in VEGF-stimulated human U251 cells after 60 mins by ELISA
ASSAY_METRIC: IC50 (µM)

Guide cases for IC50, answers given:
sample_smiles=Nc1nc(Nc2ccc(Cl)cc2F)c2cc(Cc3cccc4ccccc34)[nH]c2n1 assay_metric=IC50 value_units=µM observed_measurement=0.48
sample_smiles=Nc1nc(Nc2ccc(Cl)cc2)c2cc(Cc3cccc4ccccc34)[nH]c2n1 assay_metric=IC50 value_units=µM observed_measurement=32.1
sample_smiles=COc1ccc(OC)c(Cc2cc3c(Nc4ccc(Cl)cc4F)nc(N)nc3[nH]2)c1 assay_metric=IC50 value_units=µM observed_measurement=0.1

(1) COc1ccc(OC)c(Cc2cc3c(Nc4cccc(Br)c4)nc(N)nc3[nH]2)c1
(2) Cc1ccccc1Cc1cc2c(Nc3ccc(Cl)cc3F)nc(N)nc2[nH]1
Req: Compare 1 and 2 and name the one whose reported IC50 is smaller. State the label of the item chosen.
Resp: 1
